- TARGET: UniProt:P32245
- PROTOCOL DETAILS: Competitive inhibition binding assay using [I125]-NDP-α-MSH, HEK-293 membranes, recombinant hMC4-R
- Parameters: expressed in transfected cells; host or cells: HEK-293
Ki strictly under 40 nM means true (1); at 40 nM or over means false (0).

Examples with answers:
| COMPOUND | LABEL |
| --- | --- |
| NCCNCCC[C@H]1CN(C(=O)[C@H](N)Cc2ccc(Cl)cc2Cl)[C@H](CC2CCCCC2)CN1C(=O)[C@H](N)Cc1ccc(Cl)cc1Cl [Example 15] | false (0) |
| CC(C)C[C@@H]1CN(C(=O)[C@H](N)Cc2ccc(Cl)cc2Cl)[C@@H](CCCNCCN)CN1C(=O)[C@H](N)Cc1ccc(Cl)cc1Cl [Example 12] | false (0) |
| CC(C)C[C@@H]1CN(C[C@H](N)Cc2ccc(Cl)cc2Cl)[C@@H](CCCNCCN)CN1C(=O)Cc1ccc2ccccc2c1 [Example 18] | false (0) |

Dear colleague, could you confirm whether Ki of Cc1ccc(C[C@@H](N)C(=O)N2C[C@H](CCCCNCCN)N(C(=O)[C@H](N)Cc3ccc(C)cc3C)C[C@H]2CC(C)C)c(C)c1 [Example 21] falls below 40 nM? Thanks.
false (0)

Also check CC(C)C[C@@H]1CN(C[C@H](N)Cc2ccc(Cl)cc2Cl)[C@@H](CCCCNCCN)CN1C(=O)Cc1ccc2ccccc2c1 [Example 2]
true (1)

Also check CC(C)C[C@@H]1CN(C(=O)[C@H](N)Cc2ccc(Cl)c(Cl)c2)[C@@H](CCCCNCCN)CN1C(=O)[C@H](N)Cc1ccc(Cl)c(Cl)c1 [Example 22]
true (1)

Also check CC(C)C[C@@H]1CN(C(=O)[C@H](N)Cc2ccc(Cl)cc2Cl)[C@@H](CCCCNCCN)CN1C(=O)[C@H](N)Cc1ccc(Cl)cc1Cl [Example 19]
true (1)

Also check C[C@@H]1CN(C(=O)[C@H](N)Cc2ccc3ccccc3c2)[C@@H](CCCNCCN)CN1C(=O)[C@H](N)Cc1ccc2ccccc2c1 [Example 27]
false (0)

Also check NCCNCCCC[C@H]1CN(C(=O)[C@H](N)Cc2ccc3ccccc3c2)[C@H](CC2CCCCC2)CN1C(=O)[C@H](N)Cc1ccc2ccccc2c1 [Example 23]
true (1)

Also check Cc1ccc(C[C@@H](N)CN2C[C@@H](C)N(C(=O)Cc3ccc4ccccc4c3)C[C@@H]2CCCNC2CCNC2)c(C)c1 (some centres unmarked) [Example 5]
false (0)

Also check NCCNCCCC[C@H]1CN(C(=O)[C@H](N)Cc2ccc(Cl)cc2Cl)[C@H](CC2CCCCC2)CN1C(=O)[C@H](N)Cc1ccc(Cl)cc1Cl [Example 24]
true (1)

Also check Cc1ccc(C[C@@H](N)C(=O)N2C[C@H](CCCNCCN)N(C(=O)[C@H](N)Cc3ccc(C)cc3C)C[C@H]2CC2CCCCC2)c(C)c1 [Example 14]
false (0)

Also check Cc1ccc(C[C@@H](N)CN2C[C@@H](C)N(C(=O)Cc3ccc4ccccc4c3)C[C@@H]2CCCNCCN)c(C)c1 [Example 3]
false (0)

* * *

- TARGET: MC4-R (Homo sapiens, UniProt P32245)
- Sequence (P32245 whole entry): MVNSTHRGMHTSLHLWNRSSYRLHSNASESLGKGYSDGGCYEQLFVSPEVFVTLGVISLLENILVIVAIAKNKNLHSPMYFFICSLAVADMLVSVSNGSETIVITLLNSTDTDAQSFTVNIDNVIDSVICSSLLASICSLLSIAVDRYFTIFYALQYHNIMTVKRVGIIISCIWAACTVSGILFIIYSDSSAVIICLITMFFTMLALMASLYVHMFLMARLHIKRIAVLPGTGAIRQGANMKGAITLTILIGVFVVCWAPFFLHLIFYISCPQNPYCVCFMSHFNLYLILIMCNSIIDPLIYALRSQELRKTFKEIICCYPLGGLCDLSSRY
- PROTOCOL DETAILS: Competitive inhibition binding assay using [I125]-NDP-α-MSH, HEK-293 membranes, recombinant hMC4-R
- Set-up: expressed in transfected cells; host or cells: HEK-293
- SETTINGS: 1 μM compound
ASSAY ENDPOINT: inhibition at 1 µM (%)
Unit % implied. Number only.

Would you please look over these solved cases?
| MOLECULE | ENDPOINT UNIT | inhibition at 1 µM |
| --- | --- | --- |
| Cc1ccc(C[C@@H](N)CN2C[C@@H](C)N(C(=O)Cc3ccc4ccccc4c3)C[C@@H]2CCCNC2CCNC2)c(C)c1 (some centres unmarked) | % | 81 |
| CC(C)C[C@@H]1CN(C(=O)[C@H](N)Cc2ccc3ccccc3c2)[C@@H](CCCCNCCN)CN1C(=O)[C@H](N)Cc1ccc2ccccc2c1 | % | 99 |
| NCCNCCC[C@H]1CN(C(=O)[C@H](N)Cc2ccc(Cl)cc2Cl)[C@H](CC2CCCCC2)CN1C(=O)[C@H](N)Cc1ccc(Cl)cc1Cl | % | 83 |
| Cc1ccc(C[C@@H](N)C(=O)N2C[C@H](CCCNCCN)N(C(=O)[C@H](N)Cc3ccc(C)cc3C)C[C@H]2CC(C)C)c(C)c1 | % | 83 |
| CC(C)C[C@@H]1CN(C(=O)[C@H](N)Cc2ccc(Cl)cc2Cl)[C@@H](CCCCNCCN)CN1C(=O)Cc1ccc2ccccc2c1 | % | 98 |

Would you kindly share the measured inhibition at 1 µM for Cc1ccc(C[C@H](CN2C[C@@H](C)N(C(=O)Cc3ccc4ccccc4c3)C[C@@H]2CCCN(C)C2CCN(C)C2)N(C)C)c(C)c1 (some centres unmarked) ?
56

Also check `CC(C)C[C@@H]1CN(C(=O)[C@H](N)Cc2ccc(Cl)cc2Cl)[C@@H](CCCCNCCN)CN1C(=O)[C@H](N)Cc1ccc(Cl)cc1Cl`
97

Also check `Cc1ccc(C[C@@H](N)CN2C[C@@H](C)N(C(=O)Cc3ccc4ccccc4c3)C[C@@H]2Cc2ccc(NCCN)cc2)c(C)c1`
39

This collection of values is drawn from patent US7968548B2.
